- Test system: NCI/ADR-RES
- experiment_notes: NCI tumour cell line growth inhibition, 48 h
Active and inactive are the calls of the source. Cut-off read from the data, not from the text of the source: active = GI50 up to about 1.1 µM and inactive = higher.
The categories you may choose from are T (active), F (inactive)

As a guide, the following entries are already answered.
>>> label_class("CC1=C(C(=O)Nc2ccc(Cl)c(C(=O)OC(C)C)c2)SCCO1")
"F"
>>> label_class("O=C(NC(CO)CO)c1ccc2cc(C(=O)N3CC(CCl)c4ccc([N+](=O)[O-])cc43)[nH]c2c1 (configuration not stated)")
"F"
>>> label_class("O=c1[nH][nH]c(=O)n1/N=C/c1ccccc1")
"F"

Moving on to another compound below.
Q) Status in this test for O=C(/C=C/c1ccsc1)c1ccsc1 ?
A) F

Reference for the values: ChEMBL document CHEMBL1201862
